Assay: AUC (0-infinity) in Wistar Han rat at 2 mg/kg,iv administrated for 24 hrs by LC-MS/MS analysis
Assay type: ADME, organism-based
Design: time 24 hrs, dose 2 mg/kg, route iv
Details: in vivo
readout_label: AUC(0-inf) (ng·h/mL)
Use ng·h/mL as the unit, but write only the number.

CC(=O)N1c2cnc(NC(=O)O[C@@H](C)C(C)(C)C)nc2C2(CCC(F)(F)CC2)C1(C)C : 617

Now for the compound whose AUC(0-inf) we want.
Ask | Form field: reported AUC(0-inf) of CC(=O)N1CCC(C)(c2ccccc2)c2cc(NC(=O)CCc3cccc(C(F)(F)F)c3)ccc21 (racemic)
Reply | 694
